Give measured pKd for each item. Keep answers brief.
# measuredTarget: Q98V
# experimentalDetails: SPR; 25 C
One number for each entry, as −log10 of the molar value.

Would you mind giving pKd for every binder in the list below?
1. BMP10 (ligand) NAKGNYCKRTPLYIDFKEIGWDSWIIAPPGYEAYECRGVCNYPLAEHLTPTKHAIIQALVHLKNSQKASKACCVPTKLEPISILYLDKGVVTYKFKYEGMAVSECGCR
2. Activin A (ligand) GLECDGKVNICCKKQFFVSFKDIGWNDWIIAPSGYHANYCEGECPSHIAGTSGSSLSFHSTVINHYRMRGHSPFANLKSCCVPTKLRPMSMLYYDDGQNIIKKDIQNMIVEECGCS
3. GDF11 (ligand) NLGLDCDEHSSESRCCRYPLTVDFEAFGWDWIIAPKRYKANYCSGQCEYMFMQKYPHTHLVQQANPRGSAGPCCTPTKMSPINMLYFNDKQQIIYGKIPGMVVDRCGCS
4. BMP9 (ligand) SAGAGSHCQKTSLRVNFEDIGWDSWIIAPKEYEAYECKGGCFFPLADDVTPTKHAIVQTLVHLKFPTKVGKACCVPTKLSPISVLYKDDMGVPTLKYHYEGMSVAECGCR

result:
1. 10.32
2. 9.80
3. 10.48
4. 10.33
